Reference source for all entries: patent US20180298083A1

system-tested: 6631.V3.C10 (HIV-1)
Items are presented alongside their recorded neutralisation IC50.
Return type: number; implicit unit µg/mL.

Dear colleague, I am looking for the recorded neutralisation IC50 of the following binder: N6 VRC27CDRH3 (antibody, V domains shown) VH: RAHLVQSGTAMKKPGASVRVSCQTSGYTFTAHILFWFRQAPGRGLEWVGWIKPQYGAVNFGGGFRDRVTLTRDVYREIAYMDIRGLKPDDTAVYYCARDRLYDGSSWRLDPWGQGTTVVVSA VL: YIHVTQSPSSLSVSIGDRVTINCQTSQGVGSDLHWYQHKPGRAPKLLIHHTSSVEDGVPSRFSGSGFHTSFNLTISDLQADDIATYYCQVLQFFGRGSRLHIK
0.268

Dear colleague, I am looking for the recorded neutralisation IC50 of the following binder: N6 VRC27FRH3 (antibody, V domains shown) VH: RAHLVQSGTAMKKPGASVRVSCQTSGYTFTAHILFWFRQAPGRGLEWVGWIKPQYGAVNFGGGFRDRITLTRDIYRETAFLDLTGLRFDDTAVYYCARDRSYGDSSWALDAWGQGTTVVVSA VL: YIHVTQSPSSLSVSIGDRVTINCQTSQGVGSDLHWYQHKPGRAPKLLIHHTSSVEDGVPSRFSGSGFHTSFNLTISDLQADDIATYYCQVLQFFGRGSRLHIK
0.54

Dear colleague, I am looking for the recorded neutralisation IC50 of the following binder: N6 VRC27CDRH2 (antibody, V domains shown) VH: RAHLVQSGTAMKKPGASVRVSCQTSGYTFTAHILFWFRQAPGRGLEWVGWIKPKFGAVNYAHSFQGRVTLTRDVYREIAYMDIRGLKPDDTAVYYCARDRSYGDSSWALDAWGQGTTVVVSA VL: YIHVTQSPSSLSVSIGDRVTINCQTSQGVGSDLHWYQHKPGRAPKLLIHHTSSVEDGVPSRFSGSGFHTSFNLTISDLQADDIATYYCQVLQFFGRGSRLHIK
1.17

New cases:
Dear colleague, I am looking for the recorded neutralisation IC50 of the following binder: N6 VRC27FRH1 (antibody, V domains shown) VH: SQRLVQSGPQVRKPGSSVRISCETSGYTFNAHILFWFRQAPGRGLEWVGWIKPQYGAVNFGGGFRDRVTLTRDVYREIAYMDIRGLKPDDTAVYYCARDRSYGDSSWALDAWGQGTTVVVSA VL: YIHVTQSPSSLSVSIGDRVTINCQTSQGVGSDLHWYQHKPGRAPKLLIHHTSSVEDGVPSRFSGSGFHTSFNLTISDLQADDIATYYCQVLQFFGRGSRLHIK
0.561
